Counter-ions that a name gives are not always drawn.
Record form. Attribute: melting point. Fill in for each entry.

QUERY: Recorded melting point for COc1ccc(CC/C(=C\Cl)CN)cc1.Cl , please?
RESULT: 138 °C (dec.)

QUERY: Can you handle NC/C(=C\F)Cc1cc(F)ccc1F (as salt: hydrochloride) next?
RESULT: 105 to 106 °C

QUERY: Now consider COc1ccc(C/C(=C/F)CN)cc1OC.Cl .
RESULT: 220 to 221 °C

QUERY: Okay, and CCOc1ccc(CC/C(=C/Cl)CN)cc1 (as salt: hydrochloride) ?
RESULT: 160 to 162 °C

QUERY: Moving on to the next compound: NC/C(=C/Cl)CCc1ccc(C(F)(F)F)cc1 (as salt: hydrochloride)
RESULT: 89 to 90 °C

QUERY: Also Cc1ccc(C/C(=C/F)CN)cc1 (as salt: hydrochloride) ?
RESULT: 150 to 151 °C

QUERY: And then NC/C(=C\Cl)CCc1cc(F)cc(C(F)(F)F)c1.O=C(O)C(F)(F)F , what is it?
RESULT: 51 to 52 °C

QUERY: Request: COc1cc(C/C(=C/F)CN)cc(OC)c1 (as salt: hydrochloride)
RESULT: 194 to 195 °C

QUERY: Then COCc1cccc(C/C=C(/F)CN)c1 (as salt: hydrochloride) ?
RESULT: 165 to 166 °C

QUERY: Field entry: Cl.NC/C(F)=C\Cc1cccc(F)c1
RESULT: 175 to 176 °C
